# System: Mus musculus
# TEST_DETAILS: Anticonvulsant activity in MES induced mouse model of seizure assessed as protection against seizure at 1 mmol/Kg, ip relative to control
# Format: functional
Kind request: treat 70% as inclusive, so Activity at 70% or higher is met, anything lower is not met.

* CCCC(CCC)C(=O)O [VALPROIC ACID] | met
* CC(=O)c1nnn(-c2nc(Cl)nc(Cl)n2)c1NCc1ccc(Cl)cc1 | met
* CC(=O)c1nnn(-c2nc(Cl)nc(Cl)n2)c1NCc1ccc(C)cc1 | not met
* COc1ccc(CNc2c(C(C)=O)nnn2-c2nc(Cl)nc(Cl)n2)cc1 | not met
* Cc1ccccc1-n1c(C)nc2ccccc2c1=O [METHAQUALONE] | met

# evaluate next
stdin: Please indicate if the recorded Activity for CC(=O)c1nnn(-c2nc(Cl)nc(Cl)n2)c1NCc1ccc([N+](=O)[O-])cc1 meets or exceeds 70%.
stdout: met

###

# System: Mus musculus
# TEST_DETAILS: Anticonvulsant activity in MES induced mouse model of seizure assessed as protection against seizure at 1 mmol/Kg, ip relative to control
# Format: functional
Kind request: treat 70% as inclusive, so Activity at 70% or higher is T, anything lower is F.

Solved cases below.
- CC(=O)c1nnn(-c2nc(Cl)nc(Cl)n2)c1NCc1ccccc1: F
- CC(=O)c1nnn(-c2nc(Cl)nc(Cl)n2)c1NCc1ccc(O)cc1: F
- CC(=O)c1nnn(-c2nc(Cl)nc(Cl)n2)c1NCc1cc(F)c(F)c(F)c1: F
- CC(=O)c1nnn(-c2nc(Cl)nc(Cl)n2)c1NCc1ccc(F)cc1: T
- CC(=O)c1nnn(-c2nc(Cl)nc(Cl)n2)c1NCc1ccc(C(F)(F)F)cc1: T

stdin: Please indicate if the recorded Activity for CC(=O)c1nnn(-c2nc(Cl)nc(Cl)n2)c1NCc1cc(F)cc(F)c1 meets or exceeds 70%.
stdout: T
